# System: Crude diglycosidase
# experimentDescription: Examination of pH in the conversion into isoflavone aglycons by diglycosidase using soybean materials
# Type: biochemical, Penicillium multicolor IAM7153
# studyConditions: pH5, heat treatment of enzyme no, reaction time 6 h, 55° C.
experimentalReadout: Decomposition efficiency of glycitin family in roasted soy flour

Ask | Find the measured Decomposition efficiency of glycitin family in roasted soy flour: item `COc1cc2c(=O)c(-c3ccc(O)cc3)coc2cc1O[C@@H]1O[C@H](COC(C)=O)[C@@H](O)[C@H](O)[C@H]1O` , target or system Crude diglycosidase.
Reply | not detected

Ask | Next up: `COc1cc2c(=O)c(-c3ccc(O)cc3)coc2cc1O[C@@H]1O[C@H](CO)[C@@H](O)[C@H](O)[C@H]1O`
Reply | not detected

Ask | Repeat with `COc1cc2c(=O)c(-c3ccc(O)cc3)coc2cc1O`
Reply | 100.0

Ask | Thanks! And `COc1cc2c(=O)c(-c3ccc(O)cc3)coc2cc1O[C@@H]1O[C@H](COC(=O)CC(=O)O)[C@@H](O)[C@H](O)[C@H]1O` ?
Reply | not detected

====

# Tested on: Crude diglycosidase
# experimentDescription: Examination of pH in the conversion into isoflavone aglycons by diglycosidase using soybean materials
# Format: biochemical, Penicillium multicolor IAM7153
# studyConditions: pH2.6; heat treatment of enzyme: no; reaction time 0 h
experimentalReadout: Decomposition efficiency of glycitin family in defatted soybean

Ask | Look up Decomposition efficiency of glycitin family in defatted soybean: `COc1cc2c(=O)c(-c3ccc(O)cc3)coc2cc1O[C@@H]1O[C@H](COC(=O)CC(=O)O)[C@@H](O)[C@H](O)[C@H]1O`
Reply | 100.0%

Ask | Next entry: `COc1cc2c(=O)c(-c3ccc(O)cc3)coc2cc1O`
Reply | not detected

Ask | `COc1cc2c(=O)c(-c3ccc(O)cc3)coc2cc1O[C@@H]1O[C@H](CO)[C@@H](O)[C@H](O)[C@H]1O` , same question.
Reply | not detected

Ask | Try the molecule `COc1cc2c(=O)c(-c3ccc(O)cc3)coc2cc1O[C@@H]1O[C@H](COC(C)=O)[C@@H](O)[C@H](O)[C@H]1O`
Reply | not detected

====

# Tested on: Crude diglycosidase
# experimentDescription: Examination of temperature in the conversion into isoflavone aglycons by diglycosidase using soybean materials
# Format: biochemical, Penicillium multicolor IAM7153
# Design: concentration or dose not given beside the values
# studyConditions: 30 °C; heat treatment of enzyme: no; 3 h
experimentalReadout: Decomposition efficiency of glycitin family in roasted soy flour (%)

a: COc1cc2c(=O)c(-c3ccc(O)cc3)coc2cc1O [glycitein]
b: COc1cc2c(=O)c(-c3ccc(O)cc3)coc2cc1O[C@@H]1O[C@H](COC(C)=O)[C@@H](O)[C@H](O)[C@H]1O [acetylglycitin, 6″-O-acetylglycitin]
Ask | Quick check, higher Decomposition efficiency of glycitin family in roasted soy flour between a and b ? Indicate your choice by writing its label.
Reply | a
(a: 66.8%, b: 33.2%)

====

# Test system: Crude diglycosidase
# experimentDescription: Examination of pH in the conversion into isoflavone aglycons by diglycosidase using soybean materials
# Type: biochemical, Penicillium multicolor IAM7153
# Set-up: concentration or dose not given beside the values
# studyConditions: pH2.6; heat treatment of enzyme: no; reaction time 6 h
experimentalReadout: Decomposition efficiency of genistin family in defatted soybean (%)

Ask | # get_value(readout='Decomposition efficiency of genistin family in defatted soybean', item= O=C(O)CC(=O)OC[C@H]1O[C@@H](Oc2cc(O)c3c(=O)c(-c4ccc(O)cc4)coc3c2)[C@H](O)[C@@H](O)[C@@H]1O [malonylgenistin, 6″-O-malonylgenistin] )
Reply | 43.5

A: O=c1c(-c2ccc(O)cc2)coc2cc(O)cc(O)c12 [genistein]
B: O=c1c(-c2ccc(O)cc2)coc2cc(O[C@@H]3O[C@H](CO)[C@@H](O)[C@H](O)[C@H]3O)cc(O)c12 [genistin]
C: CC(=O)OC[C@H]1O[C@@H](Oc2cc(O)c3c(=O)c(-c4ccc(O)cc4)coc3c2)[C@H](O)[C@@H](O)[C@@H]1O [acetylgenistin, 6″-O-acetylgenistin]
Ask | Please produce an ascending ranking of these compounds based on Decomposition efficiency of genistin family in defatted soybean. Show the ranking through the labels, in the order asked for.
Reply | C, B, A
